Tested on: MOLT-4
Test Summary: Antiproliferative activity against human MOLT-4 cells assessed as […] cell proliferation at 10 uM incubated for 48 hrs by WST-1 assay relative to control
Format: functional
Property: Activity; scope: individual compounds
Readout Label: Activity (%)

[[record]]
compound_smiles = "CC(C)S(=O)(=O)c1ccc(-c2cnc3[nH]cc(C(=O)NCc4ccccc4)c3c2)cc1"
units = "%"
recorded_number = 83

[[record]]
compound_smiles = "CCN1CCN(C2CCN(Cc3c[nH]c4ncc(-c5ccc(S(=O)(=O)C(C)C)cc5)cc34)CC2)CC1"
units = "%"
recorded_number = 87

[[record]]
compound_smiles = "CC(C)S(=O)(=O)c1ccc(-c2cnc3[nH]cc(CN4CCc5ccccc5C4)c3c2)cc1"
units = "%"
recorded_number = 101

[[record]]
compound_smiles = "CS(=O)(=O)c1ccc(-c2cnc(N)c(C(=O)Nc3ccccc3)n2)cc1"
units = "%"
recorded_number = 66

[[record]]
compound_smiles = "CCN1CCN(C(=O)c2cc(-c3ccc(S(C)(=O)=O)cc3)[nH]n2)CC1"
units = "%"
recorded_number = 102

[[record]]
compound_smiles = "CC(C)S(=O)(=O)c1ccc(-c2cnc3[nH]c(C(=O)N4CCC(c5ccccc5)CC4)cc3c2)cc1"
units = "%"
recorded_number = 92

[[record]]
compound_smiles = "CC(C)S(=O)(=O)c1ccc(-c2cnc3[nH]c(C(=O)NCc4ccccc4)cc3c2)cc1"
units = "%"
recorded_number = 100

[[record]]
compound_smiles = "CC(C)S(=O)(=O)c1ccc(-c2cnc3[nH]c(C(=O)Nc4ccccc4)cc3c2)cc1"
units = "%"
recorded_number = 103

[[record]]
compound_smiles = "CC(C)S(=O)(=O)c1ccc(-c2cnc3[nH]cc(CN4CCC(c5ccccc5)CC4)c3c2)cc1"
units = "%"
recorded_number = 77


----------
System: SAOS-2
Test Summary: Antiproliferative activity against human SAOS-2 cells assessed as […] cell proliferation at 10 uM incubated for 48 hrs by WST-1 assay relative to control
Type: functional
Readout Label: Activity (%)

[[record]]
compound_smiles = "CCN1CCN(C2CCN(C(=O)c3cc4cc(-c5ccc(S(C)(=O)=O)cc5)cnc4[nH]3)CC2)CC1"
readout_label = "Activity"
recorded_number = 96

[[record]]
compound_smiles = "CC(C)S(=O)(=O)c1ccc(-c2cnc3[nH]nc(C(=O)N4CCc5ccccc5C4)c3c2)cc1"
readout_label = "Activity"
recorded_number = 96

[[record]]
compound_smiles = "CC(C)S(=O)(=O)c1ccc(-c2cnc3[nH]c(C(=O)N4CCC(c5ccccc5)CC4)cc3c2)cc1"
readout_label = "Activity"
recorded_number = 92

[[record]]
compound_smiles = "CCN1CCN(C(=O)c2c[nH]c3ncc(-c4ccc(S(=O)(=O)C(C)C)cc4)cc23)CC1"
readout_label = "Activity"
recorded_number = 100

[[record]]
compound_smiles = "CS(=O)(=O)c1ccc(-c2cnc3[nH]c(C(=O)N4CCC(c5ccccc5)CC4)cc3c2)cc1"
readout_label = "Activity"
recorded_number = 93

[[record]]
compound_smiles = "CC(C)S(=O)(=O)c1ccc(-c2cc(C(=O)N3CCC(c4ccccc4)CC3)n[nH]2)cc1"
readout_label = "Activity"
recorded_number = 84

[[record]]
compound_smiles = "CS(=O)(=O)c1ccc(-c2cc(C(=O)NCc3ccccc3)n[nH]2)cc1"
readout_label = "Activity"
recorded_number = 95

[[record]]
compound_smiles = "CCN1CCN(C(=O)c2c[nH]c3ncc(-c4ccc(S(C)(=O)=O)cc4)cc23)CC1"
readout_label = "Activity"
recorded_number = 95

[[record]]
compound_smiles = "CCN1CCN(C(=O)c2cc3cc(-c4ccc(S(C)(=O)=O)cc4)cnc3[nH]2)CC1"
readout_label = "Activity"
recorded_number = 90


----------
Test system: Jurkat
Test Summary: Antiproliferative activity against human Jurkat cells assessed as […] cell proliferation at 10 uM incubated for 48 hrs by WST-1 assay relative to control
Type: functional
Readout Label: Activity (%)

[[record]]
compound_smiles = "CC(C)S(=O)(=O)c1ccc(-c2cnc3[nH]cc(C(=O)NCc4ccccc4)c3c2)cc1"
readout_label = "Activity"
recorded_number = 83

[[record]]
compound_smiles = "CC(C)S(=O)(=O)c1ccc(-c2cnc3[nH]c(C(=O)N4CCc5ccccc5C4)cc3c2)cc1"
readout_label = "Activity"
recorded_number = 71

[[record]]
compound_smiles = "CS(=O)(=O)c1ccc(-c2cc(C(=O)NCc3ccccc3)n[nH]2)cc1"
readout_label = "Activity"
recorded_number = 95

[[record]]
compound_smiles = "CC(C)S(=O)(=O)c1ccc(-c2cc(-c3nnc(-c4ccccc4)o3)n[nH]2)cc1"
readout_label = "Activity"
recorded_number = 98

[[record]]
compound_smiles = "CC(C)S(=O)(=O)c1ccc(-c2cc(C(=O)Nc3ccc(N(C)C)cc3)n[nH]2)cc1"
readout_label = "Activity"
recorded_number = 93


----------
System: PANC-1
Test Summary: Antiproliferative activity against human PANC-1 cells assessed as […] cell proliferation at 10 uM incubated for 48 hrs in presence of 15 uM of CDDP by WST-1 assay relative to control
Format: functional
Property: Activity; scope: individual compounds
Readout Label: Activity (%)

[[record]]
compound_smiles = "CS(=O)(=O)c1ccc(-c2cnc3[nH]cc(C(=O)N4CCC(c5ccccc5)CC4)c3c2)cc1"
recorded_number = 44

[[record]]
compound_smiles = "CC(C)S(=O)(=O)c1ccc(-c2cnc3[nH]cc(C(=O)Nc4ccc(N(C)C)cc4)c3c2)cc1"
recorded_number = 59

[[record]]
compound_smiles = "CS(=O)(=O)c1ccc(-c2cnc3[nH]c(C(=O)NCc4ccccc4)cc3c2)cc1"
recorded_number = 72

[[record]]
compound_smiles = "CC(C)S(=O)(=O)c1ccc(-c2cnc3[nH]cc(CN4CCc5ccccc5C4)c3c2)cc1"
recorded_number = 62

[[record]]
compound_smiles = "CC(C)S(=O)(=O)c1ccc(-c2cc(C(=O)NCc3ccccc3)n[nH]2)cc1"
recorded_number = 68

[[record]]
compound_smiles = "CC(C)S(=O)(=O)c1ccc(-c2cnc3[nH]cc(CN4CCC(c5ccccc5)CC4)c3c2)cc1"
recorded_number = 46

[[record]]
compound_smiles = "CCN1CCN(C(=O)c2cc(-c3ccc(S(C)(=O)=O)cc3)[nH]n2)CC1"
recorded_number = 65

[[record]]
compound_smiles = "CCN1CCN(C2CCN(C(=O)c3c[nH]c4ncc(-c5ccc(S(=O)(=O)C(C)C)cc5)cc34)CC2)CC1"
recorded_number = 62

[[record]]
compound_smiles = "CS(=O)(=O)c1ccc(-c2cc(C(=O)NCc3ccccc3)n[nH]2)cc1"
recorded_number = 63

[[record]]
compound_smiles = "CC(C)S(=O)(=O)c1ccc(-c2cc(C(=O)N3CCC(c4ccccc4)CC3)n[nH]2)cc1"
recorded_number = 62

[[record]]
compound_smiles = "CC(C)S(=O)(=O)c1ccc(-c2cnc3[nH]cc(C(=O)NCc4ccccc4)c3c2)cc1"
recorded_number = 65

[[record]]
compound_smiles = "CS(=O)(=O)c1ccc(-c2cnc(N)c(C(=O)Nc3ccccc3)n2)cc1"
recorded_number = 16

[[record]]
compound_smiles = "CCN(CC)c1ccc(CNC(=O)c2cc3cc(-c4ccc(S(=O)(=O)C(C)C)cc4)cnc3[nH]2)cc1"
recorded_number = 57

[[record]]
compound_smiles = "CS(=O)(=O)c1ccc(-c2cnc3[nH]nc(C(=O)N4CCC(c5ccccc5)CC4)c3c2)cc1"
recorded_number = 71

[[record]]
compound_smiles = "CC(C)S(=O)(=O)c1ccc(-c2cc(C(=O)Nc3ccccc3)n[nH]2)cc1"
recorded_number = 70

[[record]]
compound_smiles = "CS(=O)(=O)c1ccc(-c2cnc3[nH]c(C(=O)N4CCC(c5ccccc5)CC4)cc3c2)cc1"
recorded_number = 66

[[record]]
compound_smiles = "CCN1CCN(C(=O)c2cc3cc(-c4ccc(S(C)(=O)=O)cc4)cnc3[nH]2)CC1"
recorded_number = 58

[[record]]
compound_smiles = "CCN(CC)c1ccc(CNC(=O)c2cc(-c3ccc(S(=O)(=O)C(C)C)cc3)[nH]n2)cc1"
recorded_number = 62

[[record]]
compound_smiles = "CCN1CCN(C2CCN(Cc3c[nH]c4ncc(-c5ccc(S(=O)(=O)C(C)C)cc5)cc34)CC2)CC1"
recorded_number = 46


----------
System: Jurkat
Test Summary: Antiproliferative activity against human Jurkat cells assessed as […] cell proliferation at 10 uM incubated for 48 hrs by WST-1 assay relative to control
Format: functional
Property: Activity; scope: individual compounds
Readout Label: Activity (%)

[[record]]
compound_smiles = "CC(C)S(=O)(=O)c1ccc(-c2cnc3[nH]nc(C(=O)N4CCc5ccccc5C4)c3c2)cc1"
test_system = "Jurkat"
readout_label = "Activity"
recorded_number = 96

[[record]]
compound_smiles = "CCN1CCN(C(=O)c2cc(-c3ccc(S(C)(=O)=O)cc3)[nH]n2)CC1"
test_system = "Jurkat"
readout_label = "Activity"
recorded_number = 102

[[record]]
compound_smiles = "CCN1CCN(C2CCN(Cc3c[nH]c4ncc(-c5ccc(S(=O)(=O)C(C)C)cc5)cc34)CC2)CC1"
test_system = "Jurkat"
readout_label = "Activity"
recorded_number = 87

[[record]]
compound_smiles = "CS(=O)(=O)c1ccc(-c2cnc3[nH]nc(C(=O)N4CCC(c5ccccc5)CC4)c3c2)cc1"
test_system = "Jurkat"
readout_label = "Activity"
recorded_number = 92

[[record]]
compound_smiles = "CC(C)S(=O)(=O)c1ccc(-c2cnc3[nH]c(C(=O)Nc4ccc(N(C)C)cc4)cc3c2)cc1"
test_system = "Jurkat"
readout_label = "Activity"
recorded_number = 108

[[record]]
compound_smiles = "CC(C)S(=O)(=O)c1ccc(-c2cc(-c3nc(-c4ccccc4)no3)n[nH]2)cc1"
test_system = "Jurkat"
readout_label = "Activity"
recorded_number = 101

[[record]]
compound_smiles = "CCN(CC)c1ccc(CNC(=O)c2c[nH]c3ncc(-c4ccc(S(=O)(=O)C(C)C)cc4)cc23)cc1"
test_system = "Jurkat"
readout_label = "Activity"
recorded_number = 64

[[record]]
compound_smiles = "CS(=O)(=O)c1ccc(-c2cnc3[nH]c(C(=O)N4CCC(c5ccccc5)CC4)cc3c2)cc1"
test_system = "Jurkat"
readout_label = "Activity"
recorded_number = 93

[[record]]
compound_smiles = "CC(C)S(=O)(=O)c1ccc(-c2cnc3[nH]c(C(=O)Nc4ccccc4)cc3c2)cc1"
test_system = "Jurkat"
readout_label = "Activity"
recorded_number = 103

